- STUDY TARGET: thrombin (Homo sapiens)
- TEST DESCRIPTION: Kinetic parameters of hydrolysis of the substrates by thrombin in buffer A at 37° C. (Example 4, Table 3)
- Assay type: biochemical
- Design: Pure human α-thrombin; gift of Dr. T. Lindhout (University of Limburg, Maastricht); key: NH: no hydrolysis
- TEST CONTEXT: buffer A, 37° C.
Square brackets hold non-standard residues; d marks the D form. Peptide text beside a SMILES is read from it. * marks the point of attachment. pNA = O=[N+]([O-])c1ccc(N*)cc1; Nle = CCCC[C@H](N)C(=O)O; Orn = NCCC[C@H](N)C(=O)O
QUANTITY MEASURED: Thrombin kcat

CCCC[C@H](NC(=O)[C@@H](NC(=O)CN)C(C)C)C(=O)Nc1ccc([N+](=O)[O-])cc1.Cl [HCl.H-Gly-Val-Nle-pNA] (H-Gly-Val-[Nle]-pNA): NH
CC(C)[C@H](NC(=O)[C@@H](N)CCC(=O)O)C(=O)N[C@@H](CCCNC(=N)N)C(=O)Nc1ccc([N+](=O)[O-])cc1.Cl.Cl [2HCl.H-Glu-Val-Arg-pNA] (H-Glu-Val-Arg-pNA): 1.44 s⁻¹
CC(C)[C@H](NC(=O)CN)C(=O)N[C@@H](CCCN)C(=O)Nc1ccc([N+](=O)[O-])cc1.Cl.Cl [2HCl.H-Gly-Val-Orn-pNA] (H-Gly-Val-[Orn]-pNA): NH
CC(C)[C@H](NC(=O)OCCS(C)(=O)=O)C(=O)N[C@@H](CCCCN)C(=O)Nc1ccc([N+](=O)[O-])cc1.Cl [Msc-Val-Lys-pNA.HCl]: NH

###

- STUDY TARGET: factor Xa (Homo sapiens)
- Construct: human factor Xa samples; gift of Dr. T. Lindhout (University of Limburg, Maastricht)
- TEST DESCRIPTION: Kinetics of hydrolysis of substrates by human factor Xa in buffer A at 37° C. (Example 2, Table 2)
- Format: biochemical
Square brackets hold non-standard residues; d marks the D form. Peptide text beside a SMILES is read from it. * marks the point of attachment. pNA = O=[N+]([O-])c1ccc(N*)cc1; Pip = O=C(O)[C@@H]1CCCCN1; Boc = CC(C)(C)OC(=O)*
QUANTITY MEASURED: kcat (s⁻¹)
Express your answer in s⁻¹, writing the number without its unit.

See these solved cases before continuing.
Cl.Cl.NCCCC[C@H](NC(=O)[C@@H]1CCCCN1C(=O)[C@H](N)Cc1ccccc1)C(=O)Nc1ccc([N+](=O)[O-])cc1 [2HCl.H-D-Phe-Pip-Lys-pNA] (H-[dF]-[Pip]-Lys-pNA): 0.61
Cl.Cl.N=C(N)NCCC[C@H](NC(=O)[C@@H]1CCCN1C(=O)[C@H](N)Cc1ccccc1)C(=O)Nc1ccc([N+](=O)[O-])cc1 [2HCl.H-D-Phe-Pro-Arg-pNA]: 18.7
CC(C)[C@H](NC(=O)CN)C(=O)N[C@@H](CCCNC(=N)N)C(=O)Nc1ccc([N+](=O)[O-])cc1.Cl.Cl [2HCl.H-Gly-Val-Arg-pNA] (H-Gly-Val-Arg-pNA): 3.51

Attention now shifts to the item below.
Report measured kcat; entry is CC(C)[C@H](NC(=O)CNC(=O)OC(C)(C)C)C(=O)N[C@@H](CCCNC(=N)N)C(=O)Nc1ccc([N+](=O)[O-])cc1.Cl [Boc-Gly-Val-Arg-pNA.HCl] (Boc-Gly-Val-Arg-pNA)
1.90

###

- STUDY TARGET: factor Xa (Homo sapiens, UniProt P00742)
- Construct: human factor Xa samples; gift of Dr. T. Lindhout (University of Limburg, Maastricht)
- Sequence (P00742 41-179 limits assumed): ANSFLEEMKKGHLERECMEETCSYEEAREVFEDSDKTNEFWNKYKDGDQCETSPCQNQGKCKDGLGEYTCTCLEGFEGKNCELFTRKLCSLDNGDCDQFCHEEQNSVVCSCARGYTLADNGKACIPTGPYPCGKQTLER
- Sequence (P00742 235-488 limits assumed): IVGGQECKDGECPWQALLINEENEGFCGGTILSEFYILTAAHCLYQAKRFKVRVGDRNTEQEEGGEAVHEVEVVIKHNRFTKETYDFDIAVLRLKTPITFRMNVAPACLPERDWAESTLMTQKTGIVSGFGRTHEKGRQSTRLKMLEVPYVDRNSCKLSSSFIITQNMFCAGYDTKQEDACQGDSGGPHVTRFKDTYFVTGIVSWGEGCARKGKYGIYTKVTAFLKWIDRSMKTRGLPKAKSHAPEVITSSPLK
- TEST DESCRIPTION: Kinetics of hydrolysis of substrates by human factor Xa in buffer A at 37° C. (Example 2, Table 2)
- Assay type: biochemical
So basically, if kcat comes in under 5 s⁻¹ it's rule met, and if it's 5 s⁻¹ or more it's rule not met.

CCC(CC)(C(=O)NCC(=O)N[C@@H](CCCNC(=N)N)C(=O)Nc1ccc([N+](=O)[O-])cc1)C(=O)OC.Cl [DEMZ-Gly-Arg-pNA.HCl]: rule met
COc1ccc(COC(=O)NCC(=O)N[C@@H](CCCNC(=N)N)C(=O)Nc2ccc([N+](=O)[O-])cc2)cc1.Cl [MZ-Gly-Arg-pNA.HCl]: rule not met
COC(=O)CC(=O)N[C@@H](C)C(=O)N[C@@H](CCCNC(=N)N)C(=O)Nc1ccc([N+](=O)[O-])cc1.Cl [MZ-Ala-Arg-pNA.HCl]: rule not met
NC(N)=NCCC[C@H](NC(=O)[C@@H]1CCCCN1C(=O)[C@H](N)Cc1ccccc1)C(=O)Nc1ccc([N+](=O)[O-])cc1 [2HCl.H-D-Phe-Pip-Arg-pNA]: rule not met
COC(=O)C(C)C(=O)NCC(=O)NC(CCCNC(=N)N)C(=O)Nc1ccc([N+](=O)[O-])cc1.Cl (mixture of isomers) [MMZ-Gly-Arg-pNA.HCl]: rule not met

Please indicate whether the reported kcat of COC(=O)CC(=O)N[C@@H](C(=O)N[C@@H](CCCNC(=N)N)C(=O)Nc1ccc([N+](=O)[O-])cc1)C(C)C.Cl [MZ-D-Val-Arg-pNA.HCl] is strictly below 5 s⁻¹.
rule met

###

- STUDY TARGET: factor Xa (Homo sapiens)
- Construct: human factor Xa samples; gift of Dr. T. Lindhout (University of Limburg, Maastricht)
- TEST DESCRIPTION: Kinetics of hydrolysis of substrates by human factor Xa in buffer A at 37° C. (Example 2, Table 2)
- Format: biochemical
So basically, if kcat comes in under 9 s⁻¹ it's Satisfied, and if it's 9 s⁻¹ or more it's Not satisfied.

COC(=O)C(C)C(=O)NC(C)C(=O)NC(CCCNC(=N)N)C(=O)Nc1ccc([N+](=O)[O-])cc1.Cl (mixture of isomers) [MMZ-Ala-Arg-pNA.HCl]: Not satisfied
COC(=O)CC(=O)N[C@H](C(=O)N[C@@H](CCCNC(=N)N)C(=O)Nc1ccc([N+](=O)[O-])cc1)C(C)C.Cl [MZ-Val-Arg-pNA.HCl]: Satisfied
COC(=O)CC(=O)N[C@H](C)C(=O)N[C@@H](CCCNC(=N)N)C(=O)Nc1ccc([N+](=O)[O-])cc1.Cl [MZ-D-Ala-Arg-pNA.HCl]: Satisfied

Now let's try a different one.
Please indicate whether the reported kcat of COC(=O)C(C)(C)C(=O)NCC(=O)N[C@@H](CCCNC(=N)N)C(=O)Nc1ccc([N+](=O)[O-])cc1.Cl [DMMZ-Gly-Arg-pNA.HCl] is strictly below 9 s⁻¹.
Not satisfied

###

- STUDY TARGET: human α-thrombin (Homo sapiens, UniProt P00734)
- Construct: Pure human α-thrombin; gift of Dr. T. Lindhout (University of Limburg, Maastricht)
- TEST DESCRIPTION: Kinetics of hydrolysis of substrates by human α-thrombin in buffer A at 37° C. (Example 2, Table 1)
- Assay type: biochemical
- Method: Kinetic parameters: The hydrolysis experiments were run in buffer A at 37° C. The liberation of p-nitroaniline was monitored at 405 nm in a dual wavelength (405-546 nm) spectrophotometer made in our workshop, using a personal computer for data recording. In a polystyrene microcuvette (total volume 500 μL), buffer A and substrate solution were added to obtain a final substrate concentration between 1 to 2000 μM. […]
Square brackets hold non-standard residues; d marks the D form. Peptide text beside a SMILES is read from it. * marks the point of attachment. pNA = O=[N+]([O-])c1ccc(N*)cc1; Pip = O=C(O)[C@@H]1CCCCN1; Nle = CCCC[C@H](N)C(=O)O; Orn = NCCC[C@H](N)C(=O)O
So basically, if Km comes in under 400 µM it's label 1, and if it's 400 µM or more it's label 0.

Solved cases (2 shown):
COC(=O)C(C)(C)C(=O)NCC(=O)N[C@@H](CCCNC(=N)N)C(=O)Nc1ccc([N+](=O)[O-])cc1.Cl [DMMZ-Gly-Arg-pNA.HCl]: label 0
CCC(CC)(C(=O)NCC(=O)N[C@@H](CCCNC(=N)N)C(=O)Nc1ccc([N+](=O)[O-])cc1)C(=O)OC.Cl [DEMZ-Gly-Arg-pNA.HCl]: label 0

Please indicate whether the reported Km of Cl.Cl.NCCCC[C@H](NC(=O)[C@@H]1CCCCN1C(=O)[C@H](N)Cc1ccccc1)C(=O)Nc1ccc([N+](=O)[O-])cc1 [2HCl.H-D-Phe-Pip-Lys-pNA] (H-[dF]-[Pip]-Lys-pNA) is strictly below 400 µM.
label 1

Please indicate whether the reported Km of CCCC[C@H](NC(=O)[C@@H]1CCCCN1C(=O)[C@H](N)Cc1ccccc1)C(=O)Nc1ccc([N+](=O)[O-])cc1.Cl [HCl.H-D-Phe-Pip-Nle-pNA] (H-[dF]-[Pip]-[Nle]-pNA) is strictly below 400 µM.
label 0

Please indicate whether the reported Km of CCCC[C@H](NC(=O)[C@@H]1CCCN1C(=O)[C@H](N)Cc1ccccc1)C(=O)Nc1ccc([N+](=O)[O-])cc1.Cl [HCl.H-D-Phe-Pro-Nle-pNA] (H-[dF]-Pro-[Nle]-pNA) is strictly below 400 µM.
label 1

Please indicate whether the reported Km of Cl.Cl.NCC(=O)N[C@@H](CCCN=C(N)N)C(=O)Nc1ccc([N+](=O)[O-])cc1 [2HCl.H-Gly-Arg-pNA] (H-Gly-Arg-pNA) is strictly below 400 µM.
label 0

Please indicate whether the reported Km of Cl.Cl.NCCC[C@H](NC(=O)[C@@H]1CCCCN1C(=O)[C@H](N)Cc1ccccc1)C(=O)Nc1ccc([N+](=O)[O-])cc1 [2HCl.H-D-Phe-Pip-Orn-pNA] (H-[dF]-[Pip]-[Orn]-pNA) is strictly below 400 µM.
label 0

Please indicate whether the reported Km of CC(C)[C@H](N)C(=O)N[C@@H](CCCNC(=N)N)C(=O)Nc1ccc([N+](=O)[O-])cc1.Cl.Cl [2HCl.H-Val-Arg-pNA] (H-Val-Arg-pNA) is strictly below 400 µM.
label 0
